system: Caco-2; assay: cell viability relative to DMSO; higher = less toxic; settings: 72 h; 10 nM
attribute_measured: cell viability (%)
Response body: numeric value in %, unit text excluded.

Record `O=S(=O)(c1ccccc1F)N1CCOc2c(N3CCNCC3)cccc21` has Caco-2 cell viability equal to 98.6

Here `Cc1nnc2ccc(-c3cccc(C(F)(F)F)c3)nn12` was tested on Caco-2, and its cell viability came to 97.3

Shifting focus to the molecule that follows.
# value of cell viability, Caco-2, item CN(C)CCOc1cc(-c2cn[nH]c2)ccc1NC(=O)C1COc2ccccc2O1 (stereo not drawn) = 95.6

----------
system: Calu-3; test: cell viability relative to DMSO; higher = less toxic; settings: 72 h; 100 nM
attribute_measured: cell viability (%)
Give your result in % as a bare value.

Example cases with answers are listed next.
// assay Calu-3, entry `COc1ccccc1Oc1c(NS(=O)(=O)c2ccc(C(C)(C)C)cc2)nc(-c2ncccn2)nc1OCCO` , cell viability value = 99.1

Record `CCOC(=O)Nc1ccc2c(c1)N(C(=O)CCN(CC)CC)c1ccccc1S2` ; system Calu-3; cell viability = 97.4

Fill in: Calu-3 cell viability for `O=C(N[C@@H]1Cc2ccccc2N(C[C@@H](O)CO)C1=O)c1cc2cc(Cl)sc2[nH]1` = 99.9

Lab note: compound `Oc1ccc(OCc2ccccc2)cc1` tested on Calu-3; recorded cell viability was 94.6

Would you kindly look at the next entry?
# cell viability measured on Calu-3 for item CCCCCC(O)CCCC(=O)O (stereo not given) = 101
